Reported cytotoxicity at 70.5 h values are given for each entry in this list.
- experimentDescription: Human HepG2 cell viability assay in 384 well format
- Type: toxicity, cell-based
- Set-up: dose 125 nL, time 70.5 hour; concentration not given beside the values
- studyConditions: HepG2 cells, read-out: Inhibition
Give the value in % but do not write % after it.

Example compounds with recorded cytotoxicity at 70.5 h:
>>> measvalue("CC(O)CN1CCN(Cc2nnc(C3CC3)o2)CC1 (stereo not drawn)")
-4
>>> measvalue("CC1CCCCN1C(=O)c1ccc(Br)s1 (stereo not drawn)")
-5.12
>>> measvalue("c1nc(CNC2CCOCC2)c2n1CCCN(CC1CC1)C2")
-3.82

(Q) State, in one line, measured cytotoxicity at 70.5 h of Cc1cc(C(=O)NC2CCCc3c2cnn3-c2cccc(C)c2C)[nH]n1 (stereo not drawn)
(A) -3.11

(Q) Using the record for CCCn1c(C)c(CC(=O)NC(C)(C)CO)c2c1CC(C)(C)CC2=O , state its measured cytotoxicity at 70.5 h.
(A) 0.294

(Q) Recall and state the measured cytotoxicity at 70.5 h for CCc1nc(C2CCCN2CCCSC)no1 (stereo not drawn) .
(A) -4.43

(Q) Tell us which cytotoxicity at 70.5 h value is on record for N[C@H]1CN(C(=O)c2ccc(Cl)cc2O)C[C@@H]1C1CC1
(A) -3.15

(Q) Please list cytotoxicity at 70.5 h recorded for the compound CC1(C)CN(Cc2csc(CS(C)(=O)=O)n2)Cc2ccccc21
(A) -0.447

(Q) State its cytotoxicity at 70.5 h for this compound: COCCN1CCc2ncc(CN(C)C)n2CC1
(A) -0.491

(Q) Read off the recorded cytotoxicity at 70.5 h for CCN1CCN(C2CCN(Cc3nc4ccccc4o3)CC2)C1=O
(A) -8.04

(Q) Tell me cytotoxicity at 70.5 h reported for CNC(=O)CN1CCOC(c2cccc(N)n2)C1 (stereo not drawn)
(A) -1.41

(Q) Identify cytotoxicity at 70.5 h associated with the compound O=C(N[C@@H]1CN(Cc2ccsc2)[C@@H]2CCCO[C@@H]21)C1CC1
(A) 9.03

(Q) Output measured cytotoxicity at 70.5 h for this item: Cc1cccc(Cn2cc(C)c(N)n2)c1
(A) -1.64

(Q) Return value of cytotoxicity at 70.5 h for input NC(=O)C1(CCCc2cccnc2)CCCN(c2ncccn2)C1 (stereo not drawn) , no commentary.
(A) -13.9

(Q) Given the compound CSc1nccc(N2CCC(NCCN3CCOCC3)CC2)n1 , write its reported cytotoxicity at 70.5 h.
(A) -6.94

(Q) Tell me measured cytotoxicity at 70.5 h for Cc1ncc2c(n1)CCN(CCCc1nc3ccccc3o1)C2 please.
(A) -2.27

(Q) Give cytotoxicity at 70.5 h for the following compound: COc1cc(NC(=O)NCc2cc(C)oc2C)cc(OC)c1
(A) -5.36

(Q) Give the measured cytotoxicity at 70.5 h for Cc1cc(CNS(C)(=O)=O)ccc1N(C)C
(A) -7.39

(Q) Using the record for Cc1ccc(N2CCCC(NCc3cnc(C)s3)C2)nn1 (stereo not drawn) , state its measured cytotoxicity at 70.5 h.
(A) -1.22

---

Measured cytotoxicity at 70.5 h by item
- experimentDescription: Human HepG2 cell viability assay in 384 well format
- Format: toxicity, cell-based
- Design: dose 125 nL, time 70.5 hour; concentration not given beside the values
- studyConditions: HepG2 cells, read-out: Inhibition
Reply with just the number (in %).

Solved entries:
>>> measvalue("Cc1nc(CN2CCN(C(=O)c3sccc3C3CC3)CC2)cs1")
-13
>>> measvalue("NCCCC(=O)NCC1(O)CCN(c2ccnc3cccnc23)C1 (configuration not stated)")
-7.06
>>> measvalue("CCn1ccc(NC(=O)c2cc(C)on2)n1")
-8.5
>>> measvalue("Cc1ccccc1CN(Cc1ccccn1)C(=O)CN(C)C(C)C")
2.63
>>> measvalue("CCN(CC(=O)NC(C)C)S(=O)(=O)N1CCCC(C)C1 (configuration not stated)")
-1.39

(Q) Specify measured cytotoxicity at 70.5 h for CCn1cc(CN2CCCN(C(=O)c3ccccc3OC)CC2)cn1 .
(A) -15.6

(Q) Consider the compound CC1=NOC2(CCN(Cc3c[nH]c4ccccc34)CC2)C1 . State its measured cytotoxicity at 70.5 h.
(A) -9.21

(Q) // fetch cytotoxicity at 70.5 h given entry CS(=O)(=O)NCC1CCCN(C(=O)CCCc2ccccc2)C1 (configuration not stated)
(A) -8.93

(Q) Entry COc1ccnc(N2CCC3(CC2)[C@H](O)C[C@@H]3OCCN(C)C)n1 needs its cytotoxicity at 70.5 h filled in; supply it.
(A) 2.31

(Q) Fill in reported cytotoxicity at 70.5 h for this entry: c1coc(-c2nc(CNC3CCCNC3)no2)c1 (configuration not stated)
(A) 1.79

(Q) Return value of cytotoxicity at 70.5 h for input CN1CCC(Cc2noc(-c3cccc4c3OCC4)n2)CC1 , no commentary.
(A) -8.69

(Q) Specify measured cytotoxicity at 70.5 h for Cc1ccc(-n2cnnn2)cc1NCC(=O)Nc1ccccc1Cl .
(A) -101

---

- experimentDescription: Human HepG2 cell viability assay in 384 well format
- Format: toxicity, cell-based
- Set-up: dose 125 nL, time 70.5 hour; concentration not given beside the values
- studyConditions: HepG2 cells, read-out: Inhibition
Item-by-item account of cytotoxicity at 70.5 h
Numbers only; they are read as %.

Example cases with answers are listed next.
>>> measvalue("Cn1cc(CN2CCC3(CC2)CC(Nc2nccs2)CO3)cn1 (centres undefined)")
16.9
>>> measvalue("CCc1nc(C2CCCN(C(=O)CC3CCOCC3)C2)no1 (centres undefined)")
-8.83
>>> measvalue("CC1CN(C(=O)C2(c3ccc(F)cc3F)CCOCC2)CCO1 (centres undefined)")
-2.6
>>> measvalue("Cn1nc(COCC2CC2)c2c1CCN(Cc1cccs1)C2")
-4.53
>>> measvalue("Cc1ccc(N2CCO[C@H]3CN(Cc4cccs4)C[C@H]32)nn1")
8.57
>>> measvalue("CC(C)(C)C(=O)N1CCCC1c1ccc(C(=O)N2CCOCC2)s1 (centres undefined)")
16.2
>>> measvalue("Cc1ccc(NCCCc2c(C)noc2C)nn1")
-6.84
>>> measvalue("CC(C(=O)NCc1cccs1)N1CCN(Cc2nccn2C)CC1 (centres undefined)")
13.2

(Q) Report cytotoxicity at 70.5 h for Cc1cccc(CN2CCc3ncnc(C)c3CC2)n1
(A) -2.78

(Q) Annotate the compound CN(C(=O)CCOc1ccccc1)C1CCN(CC2CCOC2)CC1 (centres undefined) with its measured cytotoxicity at 70.5 h.
(A) -8.86

(Q) Quick one: give measured cytotoxicity at 70.5 h for Cc1[nH]nc(CCC(=O)N2C[C@H]3CC[C@@H]2CN(C(=O)N(C)C)C3)c1C
(A) -8.2

(Q) Quick one: give measured cytotoxicity at 70.5 h for CCC[C@H]1CN(C(=O)Cn2ccccc2=O)C[C@@H]1NS(C)(=O)=O
(A) -1.15

(Q) Note down cytotoxicity at 70.5 h recorded for CCCC1(CO)CCCN(C(=O)CNC(N)=O)C1 (centres undefined)
(A) -28.7

(Q) Provide one value: measured cytotoxicity at 70.5 h of CNC(=O)C1CCCCN1C(=O)c1cn(CCOC)c2ccccc12 (centres undefined)
(A) 0.571

(Q) Fill in cytotoxicity at 70.5 h for record Cc1nnc2n1CCN(C(=O)c1cn(-c3ccccc3Cl)nn1)C2
(A) -9.21

(Q) Identify cytotoxicity at 70.5 h associated with the compound COc1ccc(C(=O)N2C[C@@H](O)[C@H](NCCc3ncccc3C)C2)cc1
(A) -10.6

(Q) Give the value of cytotoxicity at 70.5 h reported for the following: CN(CCCc1cc(-c2cccc(F)c2)n[nH]1)C(=O)CCn1cncn1
(A) -13.6

---

Listing: cytotoxicity at 70.5 h of selected compounds
- experimentDescription: Human HepG2 cell viability assay in 384 well format
- Type: toxicity, cell-based
- Design: dose 125 nL, time 70.5 hour; concentration not given beside the values
- studyConditions: HepG2 cells, read-out: Inhibition
Express the result in % but write the number alone.

>>> measvalue("Cc1cccc(OC2CN(C(=O)c3cnn(C)c3)C2)c1")
16.2
>>> measvalue("O=C(CCc1ccccc1)N1CCCC(c2n[nH]c3nccnc23)C1 (stereo unspecified)")
-6.72
>>> measvalue("CS(=O)(=O)N1CCc2c(nnn2CC2CC2)C1COCC1CC1 (stereo unspecified)")
-1.97
>>> measvalue("CCC(C)(C)NC(=O)c1ccc(NC(=O)NCc2cc(C)no2)cc1")
-0.597
>>> measvalue("Cc1cnn(CCC(=O)N2CCCN(c3nc(C)cs3)CC2)c1")
-3.54

(Q) In one line, give reported cytotoxicity at 70.5 h of the entry C[C@@H]1CN(C(=O)C2CCS(=O)(=O)CC2)C[C@@]1(O)C1CC1 .
(A) -19.6
